# Test system: hiPS cardiomyocytes (Cor.4U CMs)
# assay-details: Cardiac safety assay 1: beating parameters of cardiomyocytes (xCELLigence RTCA Cardio)
# Assay type: cell-based, human
# measurement-conditions: hiPS-derived cardiomyocytes, 1 uM, 15 min
Documented Change in amplitude at 1 uM @ 15 min across a set of compounds
Please give a number only; it is taken to be in %.

// solved cases for Change in amplitude at 1 uM @ 15 min follow
| compound | unit-spec | Change in amplitude at 1 uM @ 15 min |
| --- | --- | --- |
| Cc1ccc2c(c1)C(=O)[C@]1(O)CCN(c3ccccc3)C1=N2 [Blebbistatin, reference compound] | % | −57.9 |
| Cc1cccc(N2CC[C@@]3(O)C(=O)c4cc(C)ccc4N=C23)c1 | % | −7.8 |

Now, please, on to the next compound.
Give the measured Change in amplitude at 1 uM @ 15 min of "O=C1c2cc(Cl)ccc2N=C2N(c3ccccc3)CC[C@@]12O" .
−38.9

###

# assay-details: Photostability, percentage remaining undegraded under illumination or in the dark
# measurement-conditions: percentage remaining undegraded in the dark, 24 h
quantity-name: Photostability Dark (24 h) (%)
Form entry: value (%) — number only.

| compound | Photostability Dark (24 h), % |
| --- | --- |
| Cc1cc2c(cc1C)C(=O)[C@]1(O)CCN(c3ccc4c(c3)COCCN4)C1=N2 | 93.3 |
| Cc1ccc2c(c1)C(=O)[C@]1(O)CCN(c3cccc(Br)c3)C1=N2 | 94.7 |
| Cc1cc2c(cc1C)C(=O)[C@]1(O)CCN(c3cnc(CO)c(C)c3)C1=N2 | 96.6 |
| Cc1cc2c(cc1F)C(=O)[C@]1(O)CCN(c3ccccc3)C1=N2 [BPN-0026387] | 93.5 |
| O=C1c2cc(C(F)(F)F)ccc2N=C2N(c3ccc4ncsc4c3)CC[C@@]12O | 98.3 |
| Cc1nc2ccc(N3CC[C@@]4(O)C(=O)c5cc(C)c(C)cc5N=C34)cc2o1 | 85.0 |
| Cc1sc2c(c1C)C(=O)[C@]1(O)CCN(c3ccc4ncccc4c3)C1=N2 | 97.0 |
| Cc1cc2c(cc1C)C(=O)[C@]1(O)CCN(c3ccc4nnsc4c3)C1=N2 | 89.4 |

For the compound "Cc1ccc2c(c1)C(=O)[C@]1(O)CCN(c3cc4ncccc4s3)C1=N2" , what Photostability Dark (24 h) is on record?
98.3

Look up Photostability Dark (24 h) for this compound: "Cc1ccc2c(c1)C(=O)[C@]1(O)CCN(c3ccc4ccoc4c3)C1=N2"
94.7

Could you tell me which Photostability Dark (24 h) is on file for COc1cccc(N2CC[C@@]3(O)C(=O)c4cc(C)c(C)cc4N=C23)c1 [BPN-0026497] ?
97.5

###

Listing: Photostability Dark (24 h) of selected compounds
# assay-details: Photostability, percentage remaining undegraded under illumination or in the dark
# measurement-conditions: percentage remaining undegraded in the dark, 24 h
Use % as the unit, but write only the number.

| smiles | unit-spec | Photostability Dark (24 h) |
| --- | --- | --- |
| Cc1ccc2c(c1)C(=O)[C@]1(O)CCN(c3ccc4cccnc4c3)C1=N2 | % | 95.9 |
| Cc1ccc2c(c1)C(=O)[C@]1(O)CCN(c3ccc4sccc4c3)C1=N2 | % | 97.5 |
| Cc1cc2c(cc1C)C(=O)[C@]1(O)CCN(c3ccn4nccc4c3)C1=N2 | % | 96.4 |
| Cc1cc2c(cc1C)C(=O)[C@]1(O)CCN(c3ccc4nc(C)c(C)cc4c3)C1=N2 | % | 98.9 |
| CNc1cc(N2CC[C@@]3(O)C(=O)c4cc(C)c(C)cc4N=C23)ccn1 | % | 93.4 |

Next up:
Give its Photostability Dark (24 h) value. Item: "Cc1cc2c(cc1C)C(=O)[C@]1(O)CCN(c3ccc4nnccc4c3)C1=N2"
97.4
